- Tested on: Human alphaherpesvirus 2
- measurement-protocol: In vivo maximum tolerated dose against herpes simplex virus-2 (HSV-2) by oral administration in female mice
- Assay type: functional
Recorded MTD by entry

[
  {
    "smiles-code": "C=CCn1cc(C(N)=O)c(=O)c2ccc(-c3ccncc3)cc21",
    "unit-abbreviation": "mg/kg",
    "relation-symbol": "<",
    "MTD": 50
  },
  {
    "smiles-code": "Cc1cc(-c2ccc3c(=O)c(C(N)=O)cn(-c4ccc(F)cc4)c3c2)on1",
    "unit-abbreviation": "mg/kg",
    "relation-symbol": ">",
    "MTD": 200
  },
  {
    "smiles-code": "CCn1cc(C(N)=O)c(=O)c2ccc(-c3c(C)cncc3C)cc21",
    "unit-abbreviation": "mg/kg",
    "relation-symbol": "=",
    "MTD": 25
  },
  {
    "smiles-code": "NC(=O)c1c(N)n(-c2ccc(F)cc2)c2cc(-c3ccncc3)ccc2c1=O",
    "unit-abbreviation": "mg/kg",
    "relation-symbol": "=",
    "MTD": 50
  },
  {
    "smiles-code": "NC(=O)c1cn(C2CC2)c2cc(-c3ccncc3)ccc2c1=O",
    "unit-abbreviation": "mg/kg",
    "relation-symbol": "=",
    "MTD": 25
  }
]

---

- Test system: Human alphaherpesvirus 2
- measurement-protocol: In vivo maximum tolerated dose against herpes simplex virus-2 (HSV-2) by oral administration in female mice
- Format: functional

[
  {
    "smiles-code": "NC(=O)c1cn(-c2ccc(Cl)c(Cl)c2)c2cc(-c3ccncc3)ccc2c1=O",
    "relation-symbol": "=",
    "MTD, mg/kg": 100
  },
  {
    "smiles-code": "Nc1nc2c(ncn2COCCO)c(=O)[nH]1",
    "relation-symbol": ">",
    "MTD, mg/kg": 200
  },
  {
    "smiles-code": "CCCCn1cc(C(N)=O)c(=O)c2ccc(-c3ccncc3)cc21",
    "relation-symbol": "=",
    "MTD, mg/kg": 50
  },
  {
    "smiles-code": "CCn1c(=O)c(C(N)=O)c(O)c2ccc(-c3ccncc3)cc21",
    "relation-symbol": "=",
    "MTD, mg/kg": 100
  },
  {
    "smiles-code": "COc1ccc(-n2cc(C(N)=O)c(=O)c3ccc(-c4ccncc4)cc32)cc1",
    "relation-symbol": "=",
    "MTD, mg/kg": 50
  }
]

---

Recorded MTL by entry
- Tested on: Human alphaherpesvirus 2
- measurement-protocol: In vitro maximum tolerated level against herpes simplex virus-2 (HSV-2) by plaque-reduction assay in vero cells
- Type: functional
outcome-measure: MTL (µg/mL)

[
  {
    "smiles-code": "NC(=O)c1cn(-c2ccc(F)cc2)c2cc(-c3ccncc3)ccc2c1=O",
    "outcome-measure": "MTL",
    "unit-abbreviation": "µg/mL",
    "relation-symbol": "=",
    "experimental-value": 6.25
  },
  {
    "smiles-code": "CCn1c(C)c(C(N)=O)c(=O)c2ccc(-c3ccncc3)cc21",
    "outcome-measure": "MTL",
    "unit-abbreviation": "µg/mL",
    "relation-symbol": "=",
    "experimental-value": 50
  },
  {
    "smiles-code": "CC(C)(C)c1ccc(-n2cc(C(N)=O)c(=O)c3ccc(-c4ccncc4)cc32)cc1",
    "outcome-measure": "MTL",
    "unit-abbreviation": "µg/mL",
    "relation-symbol": ">",
    "experimental-value": 25
  },
  {
    "smiles-code": "CCn1cc(C(N)=O)c(=O)c2ccc(-c3cc(C)no3)cc21",
    "outcome-measure": "MTL",
    "unit-abbreviation": "µg/mL",
    "relation-symbol": ">",
    "experimental-value": 100
  },
  {
    "smiles-code": "CCn1cc(C(N)=O)c(=O)c2ccc(-c3cnc(C)s3)cc21",
    "outcome-measure": "MTL",
    "unit-abbreviation": "µg/mL",
    "relation-symbol": ">",
    "experimental-value": 100
  },
  {
    "smiles-code": "CCCCn1cc(C(N)=O)c(=O)c2ccc(-c3ccncc3)cc21",
    "outcome-measure": "MTL",
    "unit-abbreviation": "µg/mL",
    "relation-symbol": "=",
    "experimental-value": 6.25
  },
  {
    "smiles-code": "CCn1cc(C(=O)NNC)c(=O)c2ccc(-c3ccncc3)cc21",
    "outcome-measure": "MTL",
    "unit-abbreviation": "µg/mL",
    "relation-symbol": "=",
    "experimental-value": 25
  },
  {
    "smiles-code": "CCn1cc(C(N)=O)c(=O)c2ccc(-c3cccnc3)cc21",
    "outcome-measure": "MTL",
    "unit-abbreviation": "µg/mL",
    "relation-symbol": "=",
    "experimental-value": 50
  },
  {
    "smiles-code": "NC(=O)c1c(O)c2ccc(-c3ccncc3)cc2n(-c2ccc(F)cc2)c1=O",
    "outcome-measure": "MTL",
    "unit-abbreviation": "µg/mL",
    "relation-symbol": ">",
    "experimental-value": 100
  },
  {
    "smiles-code": "NC(=O)c1cn(-c2ccc(Cl)c(Cl)c2)c2cc(-c3ccncc3)ccc2c1=O",
    "outcome-measure": "MTL",
    "unit-abbreviation": "µg/mL",
    "relation-symbol": ">",
    "experimental-value": 100
  },
  {
    "smiles-code": "CCn1cc(C(=O)NOC)c(=O)c2ccc(-c3ccncc3)cc21",
    "outcome-measure": "MTL",
    "unit-abbreviation": "µg/mL",
    "relation-symbol": "=",
    "experimental-value": 25
  },
  {
    "smiles-code": "NC(=O)c1cn(-c2ccc(F)cc2F)c2cc(-c3ccncc3)ccc2c1=O",
    "outcome-measure": "MTL",
    "unit-abbreviation": "µg/mL",
    "relation-symbol": "=",
    "experimental-value": 3.1
  },
  {
    "smiles-code": "CCn1cc(C(N)=O)c(=O)c2ccc(F)cc21",
    "outcome-measure": "MTL",
    "unit-abbreviation": "µg/mL",
    "relation-symbol": "=",
    "experimental-value": 50
  },
  {
    "smiles-code": "Cn1cc(C(N)=O)c(=O)c2ccc(-c3ccncc3)cc21",
    "outcome-measure": "MTL",
    "unit-abbreviation": "µg/mL",
    "relation-symbol": ">",
    "experimental-value": 25
  },
  {
    "smiles-code": "NC(=O)c1cn(-c2cccc(F)c2)c2cc(-c3ccncc3)ccc2c1=O",
    "outcome-measure": "MTL",
    "unit-abbreviation": "µg/mL",
    "relation-symbol": ">",
    "experimental-value": 25
  },
  {
    "smiles-code": "NC(=O)c1csc2cc(-c3ccncc3)ccc2c1=O",
    "outcome-measure": "MTL",
    "unit-abbreviation": "µg/mL",
    "relation-symbol": ">",
    "experimental-value": 100
  },
  {
    "smiles-code": "CCn1cc(C(N)=O)c(=O)c2ccc(-c3ccccc3)cc21",
    "outcome-measure": "MTL",
    "unit-abbreviation": "µg/mL",
    "relation-symbol": "=",
    "experimental-value": 50
  },
  {
    "smiles-code": "NC(=O)c1cn(CCO)c2cc(-c3ccncc3)ccc2c1=O",
    "outcome-measure": "MTL",
    "unit-abbreviation": "µg/mL",
    "relation-symbol": "=",
    "experimental-value": 50
  },
  {
    "smiles-code": "NC(=O)c1cn(-c2ccc(Br)cc2)c2cc(-c3ccncc3)ccc2c1=O",
    "outcome-measure": "MTL",
    "unit-abbreviation": "µg/mL",
    "relation-symbol": ">",
    "experimental-value": 12.5
  },
  {
    "smiles-code": "CCCCCn1cc(C(N)=O)c(=O)c2ccc(-c3ccncc3)cc21",
    "outcome-measure": "MTL",
    "unit-abbreviation": "µg/mL",
    "relation-symbol": "=",
    "experimental-value": 6.25
  },
  {
    "smiles-code": "CCn1c(N)c(C(N)=O)c(=O)c2ccc(-c3ccncc3)cc21",
    "outcome-measure": "MTL",
    "unit-abbreviation": "µg/mL",
    "relation-symbol": ">",
    "experimental-value": 12.5
  },
  {
    "smiles-code": "Cc1ccc(-n2cc(C(N)=O)c(=O)c3ccc(-c4ccncc4)cc32)cc1C",
    "outcome-measure": "MTL",
    "unit-abbreviation": "µg/mL",
    "relation-symbol": ">",
    "experimental-value": 100
  },
  {
    "smiles-code": "C=CCn1cc(C(N)=O)c(=O)c2ccc(-c3ccncc3)cc21",
    "outcome-measure": "MTL",
    "unit-abbreviation": "µg/mL",
    "relation-symbol": "=",
    "experimental-value": 6.25
  }
]
